Measured log10(koff) values are reported for all entries that follow.
Molecular target: T1, recombinant cynomolgus Ang2-FLD (cynomolgus)
T1 construct: domain: FLD; also called cyno Ang2-FLD
Assay: SPR (Biacore T100), binder on CM5 chip, Ang2-FLD as analyte
Plainly stated, the numbers are log10 of koff given in s⁻¹.

Below are worked cases with known answers.
INSERT INTO measurements (binder, recorded_measurement) VALUES
  ('VHH 24B05 (VHH, also called 024B05; not shown: C-terminal c-myc tag and His6 tag) VHH: EVQLVESGGGLVQPGGSLRLSCAASGFTLDYYAIGWFRQAPGKEWEGVSCISSSDGSTYYADSVKGRFTISRDNAKNTVYLQMNSLKPEDTAVYYCATDSIVCGSYYGMDYWGKGTQVTVSS', -2.62),
  ('VHH 10H02 (VHH, also called 010H02; not shown: C-terminal c-myc tag and His6 tag) VHH: EVQLVESGGGSVQAGGSLRLSCAASGFTFDDYAIGWFRQAPGKEREGVSCISSSDGSTNYADSVKGRFTISSDTAKNTVYLQMNSLKPEDTAVYYCTAVPATRRTPQMVDANMCWLAEYEYDYWGQGTQVTVSS', -1.64),
  ('VHH 11B07 (VHH, also called 011B07; not shown: C-terminal c-myc tag and His6 tag) VHH: EVQLVESGGGLVQVGDSLRLSCAASGRTFSTYLMVGWFRQAPGKEREFAAGIWSSGDTAYADSVRGRFTISRDNAKNTVYLQMNSLKTEDTAVYYCAGSYDGNYYIPGFYKDWGQGTQVTVSS', -1.14),
  ('VHH 7G08 (VHH, also called 007G08; not shown: C-terminal c-myc tag and His6 tag) VHH: EVQLVESGGGLVQPGGSLRLSCAASGFALDYYAIGWFRQVPGKEREGVSCISSSDGITYYVDSVKGRFTISRDNAKNTVYLQMNSLKPEDTAVYYCATDSGGYIDYDCMGLGYDYWGQGTQVTVSS', -3.96),
  ('VHH 1D01 (VHH, also called 001D01; not shown: C-terminal c-myc tag and His6 tag) VHH: EVQLVESGGGLVQAGGSLRLSCAASGFTFDDYALGWFRQAAGKEREGVSCIRCSDGSTYYADSVKGRFTISSDNAKNTVYLQMNSLKPEDTAVYYCAASIVPRSKLEPYEYDAWGQGTQVTVSS', -1.85),
  ('VHH 13A02 (VHH, also called 013A02; not shown: C-terminal c-myc tag and His6 tag) VHH: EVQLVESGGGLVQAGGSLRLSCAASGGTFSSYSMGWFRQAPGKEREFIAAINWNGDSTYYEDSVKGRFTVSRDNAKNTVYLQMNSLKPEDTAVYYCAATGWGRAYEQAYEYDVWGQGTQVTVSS', -1.03);

As a next step, examine the binder that follows.
[Q] log10(koff) lookup needed for VHH 28D10 (VHH, also called 028D10; not shown: C-terminal c-myc tag and His6 tag) VHH: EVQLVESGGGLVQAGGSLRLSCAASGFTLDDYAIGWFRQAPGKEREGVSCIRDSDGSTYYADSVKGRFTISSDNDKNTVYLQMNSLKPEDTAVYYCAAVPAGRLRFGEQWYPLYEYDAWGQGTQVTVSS , thanks.
[A] -1.60

# credit: patent US20230203146A1
